Cited source for all entries: patent US10815274B2

# maps each entry to its Cytotoxic CTL response, % vs WT1- autologous APC
# Tested on: WT1- autologous APC
# PROTOCOL SUMMARY: Cr51 release assay, cytotoxic CTL response vs unmodified autologous APC
# Assay type: cell-based, human
# CONDITION SUMMARY: HLA allele A0201; 50:1 E:T
Where a SMILES comes first, the peptide text is derived from it.
// return numeric value only (unit: %, not printed)

Example entries begin here.
[
  {
    "COMPOUND": "CC(C)C[C@H](N)C(=O)N[C@@H](CC(=O)O)C(=O)N[C@@H](Cc1ccccc1)C(=O)N[C@@H](C)C(=O)N1CCC[C@H]1C(=O)N1CCC[C@H]1C(=O)NCC(=O)N[C@@H](C)C(=O)N[C@@H](CO)C(=O)O [SEQ ID NO: 155] (H-LDFAPPGAS-OH; N-terminus and C-terminus assumed)",
    "TGT": "WT1- autologous APC",
    "ENDPOINT VALUE": 0
  },
  {
    "COMPOUND": "CC(C)C[C@H](NC(=O)[C@@H](N)CCCCN)C(=O)NCC(=O)N[C@@H](C)C(=O)N[C@@H](C)C(=O)N[C@@H](CCC(=O)O)C(=O)N[C@@H](C)C(=O)N[C@@H](CO)C(=O)N[C@@H](C)C(=O)O [SEQ ID NO: 150] (H-KLGAAEASA-OH; N-terminus and C-terminus assumed)",
    "TGT": "WT1- autologous APC",
    "ENDPOINT VALUE": 3
  }
]

Ask: Entry under review: CC(C)C[C@H](NC(=O)[C@H](CO)NC(=O)[C@@H]1CCCN1C(=O)[C@@H]1CCCN1C(=O)[C@H](Cc1ccccc1)NC(=O)[C@H](Cc1c[nH]cn1)NC(=O)[C@@H]1CCCN1C(=O)[C@H](CC(C)C)NC(=O)[C@@H]1CCCN1)C(=O)O [SEQ ID NO: 144] (H-PLPHFPPSL-OH; N-terminus and C-terminus assumed) . Reported Cytotoxic CTL response, % vs WT1- autologous APC?
Reply: 0
